- System name: human PDE2A1 (Homo sapiens)
- Construct: GST; purchased BPS Bioscience (San Diego, Calif.) 60020; host or cells: insect cells
- Sequence (O00408 1-920 isoform O00408-2): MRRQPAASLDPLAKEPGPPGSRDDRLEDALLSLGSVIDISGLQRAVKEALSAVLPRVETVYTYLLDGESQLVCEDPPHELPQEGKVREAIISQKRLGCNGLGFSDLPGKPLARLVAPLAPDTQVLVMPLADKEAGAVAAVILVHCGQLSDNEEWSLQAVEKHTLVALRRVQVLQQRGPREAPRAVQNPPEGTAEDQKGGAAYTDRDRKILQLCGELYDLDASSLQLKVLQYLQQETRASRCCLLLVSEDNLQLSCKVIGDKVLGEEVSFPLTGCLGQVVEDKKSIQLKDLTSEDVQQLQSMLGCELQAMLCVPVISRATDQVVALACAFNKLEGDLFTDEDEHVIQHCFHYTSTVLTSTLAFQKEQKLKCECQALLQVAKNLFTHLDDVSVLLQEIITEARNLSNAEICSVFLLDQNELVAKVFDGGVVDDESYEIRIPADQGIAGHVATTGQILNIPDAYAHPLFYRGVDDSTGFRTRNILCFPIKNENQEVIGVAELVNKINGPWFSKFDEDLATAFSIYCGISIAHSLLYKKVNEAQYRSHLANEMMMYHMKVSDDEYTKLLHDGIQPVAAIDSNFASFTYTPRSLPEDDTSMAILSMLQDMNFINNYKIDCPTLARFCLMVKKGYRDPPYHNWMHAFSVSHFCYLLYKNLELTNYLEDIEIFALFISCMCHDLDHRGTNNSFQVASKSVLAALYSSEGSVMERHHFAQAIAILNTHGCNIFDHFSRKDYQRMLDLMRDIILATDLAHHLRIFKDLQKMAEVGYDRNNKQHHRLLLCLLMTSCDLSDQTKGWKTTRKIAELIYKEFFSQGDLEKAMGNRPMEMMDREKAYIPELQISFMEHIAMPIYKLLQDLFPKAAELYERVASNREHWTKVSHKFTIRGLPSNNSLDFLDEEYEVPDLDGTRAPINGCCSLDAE
- Experiment notes: PDE2 IMAP FP inhibition assay, human enzyme (PDE selectivity panel format)
- Assay type: biochemical
- Run conditions: Lab A; read-out: Human PDE2 Ki (nM) Lab A
Rule for this label: 1.0 means Ki is less than 40 nM; 0.0 means Ki is at least 40 nM.

Past entries and their recorded results:
{"Compound": "CCc1ccc([C@@H](CO)n2cc(-c3cc(=O)[nH]c(C)n3)cn2)c(Cl)c1 (single isomer, unassigned) [Example 17]", "Category": 0.0}
{"Compound": "Cc1nc(-n2cc(C(C)(O)c3ccc(C(F)(F)F)cc3Cl)cn2)cc(=O)[nH]1 (single isomer, unassigned) [Example 118]", "Category": 0.0}
{"Compound": "CCc1ccc(C(CO)c2cnn(-c3cc(=O)[nH]c(C)n3)c2)c(F)c1 (single isomer, unassigned) [Example 116]", "Category": 0.0}
{"Compound": "CC(C)c1nc(-c2cnn(C(C)c3ccc(C(F)(F)F)cc3F)c2)cc(=O)[nH]1 (stereo not shown)", "Category": 0.0}
{"Compound": "Cc1nc(-c2cnn(C(CO)c3ccc(C(F)(F)F)cc3F)c2)cc(=O)[nH]1 (single isomer, unassigned) [Example 110]", "Category": 0.0}

Regarding COc1ccc(Cc2nc(-c3cnn(C(C)c4ccc(C(F)(F)F)cc4)c3)cc(=O)[nH]2)cc1OC (single isomer, unassigned) [Example 60] , kindly confirm whether its Ki is beneath 40 nM.
1.0

Regarding Cc1nc(-n2cc(C(C)(O)c3ccc(C(F)(F)F)cc3Cl)cn2)cc(=O)[nH]1 (single isomer, unassigned) [Example 117] , kindly confirm whether its Ki is beneath 40 nM.
1.0

Regarding COc1ccc(Cc2nc(-n3cc(C(C)c4ccc(C(F)(F)F)cc4)cn3)cc(=O)[nH]2)cc1OC (stereo not shown) , kindly confirm whether its Ki is beneath 40 nM.
1.0

Regarding Cc1nc(-c2cnn(C(CO)c3ccc(C(F)(F)F)cc3Cl)c2)cc(=O)[nH]1 (single isomer, unassigned) [Example 122] , kindly confirm whether its Ki is beneath 40 nM.
0.0
